target: HLA-B*15:17; test: IEDB peptide-MHC binding, purified MHC/competitive/fluorescence; filed as Kd, often an IC50 or EC50 that approximates it; bounds were set here for any values at or beyond the usual limits of such assays; conditions: source organism: Vibrio cholerae
pKd: −log10 of the molar value.
METRIC_NAME: pKd

[
  {
    "SEQUENCE_CODE": "TRAPAPFPL",
    "TEST_TARGET": "HLA-B*15:17",
    "RESULT": "≤ 4.70"
  }
]

* * *

target: HLA-A*11:01; assay: IEDB peptide-MHC binding, purified MHC/competitive/radioactivity; filed as Kd, often an IC50 or EC50 that approximates it; bounds were set here for any values at or beyond the usual limits of such assays; settings: source organism: Mammarenavirus machupoense
pKd: −log10 of the molar value.

[
  {
    "SEQUENCE_CODE": "HYIHCFRKPH",
    "pKd": "≤ 4.16"
  }
]

* * *

target: HLA-A*02:19; assay: IEDB peptide-MHC binding, purified MHC/direct/fluorescence; filed as Kd, often an IC50 or EC50 that approximates it; bounds were set here for any values at or beyond the usual limits of such assays; conditions: source organism: Reston ebolavirus

[
  {
    "SEQUENCE_CODE": "RRELSKEKL",
    "Kd": "≥ 20 µM"
  }
]

* * *

biological target: HLA-B*18:01; experiment: IEDB peptide-MHC binding, purified MHC/direct/fluorescence; filed as Kd, often an IC50 or EC50 that approximates it; bounds were set here for any values at or beyond the usual limits of such assays; settings: source organism: Giardia lamblia ATCC 50803
METRIC_NAME: Kd

[
  {
    "SEQUENCE_CODE": "RPALVVDTP",
    "METRIC_NAME": "Kd",
    "RESULT": "≥ 20 µM"
  }
]

* * *

biological target: HLA-B*14:02; experiment: IEDB peptide-MHC binding, purified MHC/competitive/fluorescence; filed as Kd, often an IC50 or EC50 that approximates it; bounds were set here for any values at or beyond the usual limits of such assays; conditions: source organism: Vibrio parahaemolyticus AQ3810
METRIC_NAME: Kd

[
  {
    "SEQUENCE_CODE": "HQFTSNPEV",
    "METRIC_NAME": "Kd",
    "RESULT": "≥ 5 µM"
  }
]

* * *

molecular target: HLA-B*46:01; test: IEDB peptide-MHC binding, purified MHC/competitive/fluorescence; filed as Kd, often an IC50 or EC50 that approximates it; bounds were set here for any values at or beyond the usual limits of such assays; conditions: source organism: Mus musculus

[
  {
    "SEQUENCE_CODE": "VLWKSYPLV",
    "Kd": "≥ 20 µM"
  }
]

* * *

molecular target: HLA-B*07:02; experiment: IEDB peptide-MHC binding, purified MHC/direct/fluorescence; filed as Kd, often an IC50 or EC50 that approximates it; bounds were set here for any values at or beyond the usual limits of such assays; conditions: source organism: Human immunodeficiency virus type 1 (STRAIN UGANDAN / ISOLATE U455)

[
  {
    "SEQUENCE_CODE": "HPDIVIYQY",
    "Kd, µM": 13
  }
]

* * *

biological target: HLA-A*26:01; experiment: IEDB peptide-MHC binding, purified MHC/direct/fluorescence; filed as Kd, often an IC50 or EC50 that approximates it; bounds were set here for any values at or beyond the usual limits of such assays; conditions: source organism: Mycobacterium tuberculosis

[
  {
    "SEQUENCE_CODE": "VTTLGLPFY",
    "Kd / µM": 13
  },
  {
    "SEQUENCE_CODE": "EVSTAIAAL",
    "Kd / µM": 0.0122
  },
  {
    "SEQUENCE_CODE": "EVSARIAAL",
    "Kd / µM": 0.0124
  }
]
